Quick reference: viscosity of the listed items.
ASSAY_CONDITIONS: 298.15 K; 100 kPa; Liquid; Concentric cylinders viscometry
Kindly answer with a numeric value in mPa·s, unit omitted.

Here's what some known entries look like.
INSERT INTO results (compound, assay_readout, meas_value) VALUES
  ('CCCC(C)O (centres undefined)', 'viscosity', 3.44),
  ('Nc1ccccc1', 'viscosity', 3.8),
  ('CCC(C)O (centres undefined)', 'viscosity', 3.04);

Please look at the following compound next.
Task: Hello, please tell me recorded viscosity for this one: CC(C)O
Output: 2.08

====

Quick reference: mass density of the listed items.
ASSAY_CONDITIONS: 298.15 K; 100 kPa; Liquid; Vibrating tube method
± gives the expanded uncertainty stated by the source.
Answer format: number, then unit.

INSERT INTO assay_data (molecule, meas_value) VALUES
  ('CCCC(C)O (centres undefined)', '805.3 ± 0.2 kg/m3'),
  ('Nc1ccccc1', '1017.4 ± 0.3 kg/m3'),
  ('CC(C)O', '781.1 ± 0.2 kg/m3');

Please look at the following molecule next.
Task: Hello, please tell me recorded mass density for this one: CCC(C)O (centres undefined)
Output: 802.7 ± 0.2 kg/m3
